// IC50 lookup, one value per entry
TEST SYSTEM: T1, HLA-DP molecule DPB1*0501 (human, UniProt P20036 29-222; P04440 30-225, limits assumed)
T1 MHC II alpha: not shown
T1 MHC II beta: not shown
EXPERIMENT NOTES: inhibition of radiolabeled peptide binding to purified HLA-DP

>  <BINDER>
DSYKFIPTLVAAVKQ [Lol p 5 1 peptide, position 236, DSYKFIPTLVAAVKQ (Peptide ID 3324.1165)]

>  <IC50 [µM]>
0.0069

$$$$
>  <BINDER>
PAAAYATATPAAATA [Lol p 5 1 peptide, position 306, PAAAYATATPAAATA (Peptide ID 3324.1184)]

>  <IC50 [µM]>
12.4

$$$$
